Biological target: KRAS G12V binding to BRAF (Homo sapiens (Human), UniProt P01116+P62937, G12V)
Sequence (P01116-2 other isoform, or with tags, fused parts or gaps G12V): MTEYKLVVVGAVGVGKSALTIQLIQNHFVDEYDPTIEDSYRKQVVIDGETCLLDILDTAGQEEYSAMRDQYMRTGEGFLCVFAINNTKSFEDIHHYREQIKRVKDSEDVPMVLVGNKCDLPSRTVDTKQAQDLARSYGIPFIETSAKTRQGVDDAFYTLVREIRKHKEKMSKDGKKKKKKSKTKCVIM
Sequence (P62937 whole entry): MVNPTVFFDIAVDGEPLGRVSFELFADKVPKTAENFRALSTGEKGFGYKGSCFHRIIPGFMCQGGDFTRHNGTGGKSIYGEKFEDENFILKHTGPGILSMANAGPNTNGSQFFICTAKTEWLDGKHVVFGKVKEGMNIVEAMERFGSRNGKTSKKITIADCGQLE
Test: KRAS-BRAF with CYPA (500 nM) interaction assay (TR-FRET), G12V
MEASURE_NAME: IC50

Prompt: GET /values?readout=IC50&system=KRAS G12V binding to BRAF (Homo sapiens (Human), UniProt P01116+P62937, G12V)&item= CC(C)[C@@H](C(=O)N[C@H]1Cc2cc(O)cc(c2)-c2ccc3c(C(C)(C)C#N)cn(c3c2)CC(C)(C)COC(=O)[C@@H]2CCCN(N2)C1=O)N1CCC2(CN(C(=O)CCl)C2)C1=O [RM44, reference compound]
Response: > 10 µM

Prompt: GET /values?readout=IC50&system=KRAS G12V binding to BRAF (Homo sapiens (Human), UniProt P01116+P62937, G12V)&item= CCn1c(-c2cc(N3CCN(C)CC3)cnc2[C@H](C)OC)c2c3cc(c(F)cc31)-c1csc(n1)C[C@H](NC(=O)[C@H](C(C)C)N1CC[C@@]3(CCN(C(=O)[C@H](F)Cl)C3)C1=O)C(=O)N1CCC[C@H](N1)C(=O)OCC(C)(C)C2 (atropisomer, axis not shown; (M))
Response: > 10 µM

Prompt: GET /values?readout=IC50&system=KRAS G12V binding to BRAF (Homo sapiens (Human), UniProt P01116+P62937, G12V)&item= CCn1c(-c2cc(N3CCOCC3)cnc2[C@H](C)OC)c2c3cc(c(F)cc31)-c1csc(n1)C[C@H](NC(=O)[C@H](C(C)C)N1CCC3(CN(C(=O)[C@H](F)Cl)C3)C1=O)C(=O)N1CCC[C@H](N1)C(=O)OCC(C)(C)C2 (atropisomer, axis not shown; (M))
Response: > 10 µM
